- EXPERIMENTAL TARGET: hRUP25 (Homo sapiens, UniProt Q8TDS4)
- Sequence (Q8TDS4 whole entry): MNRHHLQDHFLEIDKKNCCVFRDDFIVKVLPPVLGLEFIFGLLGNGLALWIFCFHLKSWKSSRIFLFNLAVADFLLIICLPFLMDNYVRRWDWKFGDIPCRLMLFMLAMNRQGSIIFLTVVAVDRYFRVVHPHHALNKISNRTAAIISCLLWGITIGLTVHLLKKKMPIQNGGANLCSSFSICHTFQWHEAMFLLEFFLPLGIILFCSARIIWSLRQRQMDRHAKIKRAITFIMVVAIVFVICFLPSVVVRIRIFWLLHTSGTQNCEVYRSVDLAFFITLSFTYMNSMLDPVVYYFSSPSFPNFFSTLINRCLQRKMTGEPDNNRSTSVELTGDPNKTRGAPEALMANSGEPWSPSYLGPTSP
- METHOD: Inhibition of forskolin stimulated cAMP accumulation in stable CHO cells (adenylyl cyclase assay)
- Format: cell-based
pEC50: −log10 of the molar value.
ASSAY METRIC: pEC50

MOLECULE	ASSAY METRIC	RESULT NUMBER
CN1CCC[C@H]1c1cccnc1 [(−)-nicotine, (−)-NICOTINE, reference compound]	pEC50	5.01

---

- Tested on: adipocyte primary cultures derived from human subcutaneous fat
- METHOD: Isoproterenol induced lipolysis in human primary adipocytes
- Type: cell-based
- TEST CONTEXT: Homo sapiens, Adipocyte, read-out: EC50, inhibition of isoproterenol induced lipolysis
pEC50: −log10 of the molar value.
ASSAY METRIC: pEC50

ITEM SMILES	RESULT NUMBER
O=C(O)c1cccnc1	6.15

---

- EXPERIMENTAL TARGET: hRUP38 (Homo sapiens, UniProt P49019)
- Construct: The full length hRUP38 was cloned by PCR using hRUP38 specific primers
- Sequence (P49019 whole entry K94N/T173P/F198L/H253R/I317M/I346M): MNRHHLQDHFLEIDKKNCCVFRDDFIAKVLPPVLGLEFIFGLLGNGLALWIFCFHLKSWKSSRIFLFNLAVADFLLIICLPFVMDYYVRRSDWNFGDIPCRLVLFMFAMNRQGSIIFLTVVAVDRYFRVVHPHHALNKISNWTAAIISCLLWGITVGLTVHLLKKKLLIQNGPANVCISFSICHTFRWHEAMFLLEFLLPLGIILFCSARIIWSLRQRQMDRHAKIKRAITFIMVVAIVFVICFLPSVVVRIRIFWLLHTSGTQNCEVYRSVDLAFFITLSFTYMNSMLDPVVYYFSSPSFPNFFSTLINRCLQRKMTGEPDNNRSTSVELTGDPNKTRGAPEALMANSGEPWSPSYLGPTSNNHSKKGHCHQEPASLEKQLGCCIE
- METHOD: Inhibition of forskolin stimulated cAMP in stable CHO cells (adenylyl cyclase assay)
- TEST CONTEXT: hRUP38-expressing CHO cells
pEC50: −log10 of the molar value.

ITEM SMILES	pEC50
CCOc1ccc(Br)cc1C=CC(=O)O	5.93

---

- EXPERIMENTAL TARGET: UniProtKB Q8TDS4
- METHOD: Inhibition of forskolin stimulated cAMP accumulation in stable CHO cells (adenylyl cyclase assay)
- Format: cell-based
- TEST CONTEXT: CHO cells expressing hRUP25
ASSAY METRIC: inhibition of forskolin stimulated cAMP / agonist or not (in words)

ITEM SMILES	RESULT
CC(C)n1nnc2cc(C(=O)O)ccc21	no effect
CCOc1ccc(Br)cc1C=CC(=O)O	no effect

---

- EXPERIMENTAL TARGET: hRUP25 (Homo sapiens)
- METHOD: Inhibition of forskolin stimulated cAMP accumulation in stable CHO cells (adenylyl cyclase assay)
- Assay type: cell-based
- TEST CONTEXT: hRUP25-expressing CHO cells (stable line #46 in FIG. 18B); read-out: EC50, inhibition of forskolin stimulated cAMP accumulation
pEC50: −log10 of the molar value.
ASSAY METRIC: pEC50

ITEM SMILES	RESULT NUMBER
CCCc1nn(C)c(O)c1C(=O)c1cccnc1	6.45

---

- Test system: adipocyte primary cultures derived from human subcutaneous fat
- METHOD: Isoproterenol induced lipolysis in human primary adipocytes
- Type: cell-based
- TEST CONTEXT: adipocyte primary cultures derived from human subcutaneous fat; read-out: EC50, inhibition of isoproterenol induced lipolysis
pEC50: −log10 of the molar value.

COMPOUND	EXPERIMENTAL TARGET	pEC50
c1cncc(-c2nn[nH]n2)c1 [P-3-T, 3-tetrazole-5-pyridine, reference compound]	adipocyte primary cultures derived from human subcutaneous fat	6.66
